The measured values listed here are drawn from patent US7432400B2.

Assay: UV absorption (λmax) of the biphenyl compounds as UV filters
Type: physicochemical
Settings: measured in acetonitrile 98/water 2
Item-by-item account of λmax [nm]
Note: unit nm is implicit; provide only the numeric part.

Here is how some molecules turned out for λmax [nm].
molecule=O=C1/C(=C/c2ccc(-c3ccc(/C=C4\CCc5ccccc5C4=O)cc3)cc2)CCc2ccccc21 measurement_units=nm recorded_value=351
molecule=O=C1CCCCCC/C1=C\c1ccc(-c2ccc(/C=C3\CCCCCCC3=O)cc2)cc1 measurement_units=nm recorded_value=315
molecule=O=C(/C(=C/c1ccc(-c2ccc(/C=C(/C(=O)c3ccccc3)c3ccccc3)cc2)cc1)c1ccccc1)c1ccccc1 measurement_units=nm recorded_value=326
molecule=C/C(=C\c1ccc(-c2ccc(/C=C(\C)C(=O)c3ccccc3)cc2)cc1)C(=O)c1ccccc1 measurement_units=nm recorded_value=326
molecule="CCCCCCC1CC/C(=C\\c2ccc(-c3ccc(/C=C4\\CCC(CCCCCC)C4=O)cc3)cc2)C1=O (centres unmarked)" measurement_units=nm recorded_value=282

Incoming: Provide one value: measured λmax [nm] of O=C1OCCCC/C1=C\c1ccc(-c2ccc(/C=C3\CCCCOC3=O)cc2)cc1
Outgoing: 361

Incoming: Provide one value: measured λmax [nm] of O=C1CCCCC/C1=C\c1ccc(-c2ccc(/C=C3\CCCCCC3=O)cc2)cc1
Outgoing: 337

Incoming: Provide one value: measured λmax [nm] of O=C(/C=C/c1ccc(-c2ccc(/C=C/C(=O)c3ccc(F)cc3)cc2)cc1)c1ccc(F)cc1
Outgoing: 358

Incoming: Provide one value: measured λmax [nm] of CC(=O)/C(=C\c1ccc(-c2ccc(/C=C(\C(C)=O)C(=O)OC(C)(C)C)cc2)cc1)C(=O)OC(C)(C)C
Outgoing: 345

Incoming: Provide one value: measured λmax [nm] of COc1ccc2c(c1)CC/C(=C\c1ccc(-c3ccc(/C=C4\CCc5cc(OC)ccc5C4=O)cc3)cc1)C2=O
Outgoing: 351

Incoming: Provide one value: measured λmax [nm] of CC(C)(C)C1CCC(=O)/C(=C/c2ccc(-c3ccc(/C=C4\CC(C(C)(C)C)CCC4=O)cc3)cc2)C1 (centres unmarked)
Outgoing: 357
